Let's look at some compounds and their measured activity at 10 µM.
System: SF-295
Assay: NCI-60 one-dose SRB screening
Format: cell-based
Conditions: Homo sapiens, SF-295, CNS Cancer, 10 µM one dose, 48 h, read-out: growth percentage
Output spec: scalar in %, unitless text.

> print(dat)
                                   compound  quantitativeresult
1  [O-][n+]1onc(-c2ccccc2)c1COc1ccc(Nc2ncnc3c2cnn3-c2ccccc2)cc1 [6a]                98.4
2  Cc1nn(-c2ccccc2)c2nc(C(F)(F)F)nc(Nc3ccc(NCc4c(-c5ccccc5)no[n+]4[O-])cc3)c12 [12a]                76.6
3  Cc1nc(Nc2ccc(OCc3c(-c4ccccc4)no[n+]3[O-])cc2)c2c(C)nn(-c3ccc(Br)cc3)c2n1 [6h]                 105
4  Cc1nn(-c2ccccc2)c2nc(CNc3ccc(NCc4c(-c5ccccc5)no[n+]4[O-])cc3)[nH]c(=O)c12 [14b]                 103
5  O=c1[nH]c(CNc2ccc(NCc3c(-c4ccccc4)no[n+]3[O-])cc2)nc2c1cnn2-c1ccccc1 [14a]                71.8

What does the record list as activity at 10 µM for [O-][n+]1onc(-c2ccccc2)c1COc1ccc(Nc2ncnc3c2cnn3-c2ccc(Br)cc2)cc1 [6e] ?
101

What does the record list as activity at 10 µM for Nc1ccc(NCc2c(-c3ccccc3)no[n+]2[O-])cc1 [compound 11] ?
117

What does the record list as activity at 10 µM for O=c1[nH]c(CCl)nc2c1cnn2-c1ccccc1 [13a] ?
110

What does the record list as activity at 10 µM for Cc1nn(-c2ccccc2)c2ncnc(Nc3ccc(OCc4c(-c5ccccc5)no[n+]4[O-])cc3)c12 [6c] ?
99

What does the record list as activity at 10 µM for Cc1nn(-c2ccc(Br)cc2)c2ncnc(Nc3ccc(OCc4c(-c5ccccc5)no[n+]4[O-])cc3)c12 [6g] ?
87.6

What does the record list as activity at 10 µM for Cc1nn(-c2ccc(Br)cc2)c2nc(CCl)[nH]c(=O)c12 [13c] ?
100

What does the record list as activity at 10 µM for Cc1nn(-c2ccc(Br)cc2)c2nc(CNc3ccc(NCc4c(-c5ccccc5)no[n+]4[O-])cc3)[nH]c(=O)c12 [14c] ?
115

====

Let's look at some compounds and their measured activity at 10 µM.
System: SF-539
Assay: NCI-60 one-dose SRB screening
Format: cell-based
Details: Homo sapiens, SF-539, CNS Cancer, 10 µM one dose, 48 h, read-out: growth percentage
Method: The structures of the synthesized compounds 6a–h, 12a–c, 11, 13a–c, and 14a–c were submitted to the National Cancer Institute’s Developmental Therapeutics Program (NCI-DTP), and all of them were selected for preliminary in vitro anticancer activity screening against NCI-59 human cancer cell lines at a concentration of 10 µM, using the sulforhodamine B (SRB) assay to determine the growth percentage and cell viability. […]
Output spec: scalar in %, unitless text.

Worked examples, 3 compounds total:
> print(dat)
                                   compound  quantitativeresult
1  Cc1nc(Nc2ccc(OCc3c(-c4ccccc4)no[n+]3[O-])cc2)c2cnn(-c3ccc(Br)cc3)c2n1 [6f]                94.2
2  Cc1nn(-c2ccc(Br)cc2)c2nc(C(F)(F)F)nc(Nc3ccc(NCc4c(-c5ccccc5)no[n+]4[O-])cc3)c12 [12c]                59.4
3  [O-][n+]1onc(-c2ccccc2)c1COc1ccc(Nc2ncnc3c2cnn3-c2ccccc2)cc1 [6a]                95.7

--- query ---
What does the record list as activity at 10 µM for Cc1nc(Nc2ccc(OCc3c(-c4ccccc4)no[n+]3[O-])cc2)c2c(C)nn(-c3ccccc3)c2n1 [6d] ?
99.8

====

Let's look at some molecules and their measured activity at 10 µM.
Test system: NCI-H522
Assay: NCI-60 one-dose SRB screening
Format: cell-based
Conditions: Homo sapiens, NCI-H522, Non-Small Cell Lung Cancer, 10 µM one dose, 48 h, read-out: growth percentage
Experimental: The structures of the synthesized compounds 6a–h, 12a–c, 11, 13a–c, and 14a–c were submitted to the National Cancer Institute’s Developmental Therapeutics Program (NCI-DTP), and all of them were selected for preliminary in vitro anticancer activity screening against NCI-59 human cancer cell lines at a concentration of 10 µM, using the sulforhodamine B (SRB) assay to determine the growth percentage and cell viability. […]
Output spec: scalar in %, unitless text.

> print(dat)
                                   molecule  quantitativeresult
1  Cc1nc(Nc2ccc(OCc3c(-c4ccccc4)no[n+]3[O-])cc2)c2c(C)nn(-c3ccc(Br)cc3)c2n1                  84
2  [O-][n+]1onc(-c2ccccc2)c1COc1ccc(Nc2ncnc3c2cnn3-c2ccc(Br)cc2)cc1                96.1
3  [O-][n+]1onc(-c2ccccc2)c1COc1ccc(Nc2ncnc3c2cnn3-c2ccccc2)cc1                99.2
4    O=c1[nH]c(CCl)nc2c1cnn2-c1ccccc1 [13a]                 103
5  [O-][n+]1onc(-c2ccccc2)c1CNc1ccc(Nc2nc(C(F)(F)F)nc3c2cnn3-c2ccc(Br)cc2)cc1 [12b]                72.6

Give the reported activity at 10 µM for Cc1nc(Nc2ccc(OCc3c(-c4ccccc4)no[n+]3[O-])cc2)c2cnn(-c3ccc(Br)cc3)c2n1 (system: NCI-H522).
92.5

====

System: T-47D
Assay: NCI-60 one-dose SRB screening
Assay type: cell-based
Details: Homo sapiens, T47D, Breast Cancer, 10 µM one dose, 48 h, read-out: growth percentage
activity at 10 µM of 80% or higher: 1 (yes). Under 80%: 0 (no).

> print(dat)
                                   molecule  targetsystem  qualitativelabel
1  Cc1nn(-c2ccc(Br)cc2)c2nc(CCl)[nH]c(=O)c12 [13c]         T-47D           1 (yes)

Could you tell me if the measured activity at 10 µM of Cc1nn(-c2ccccc2)c2ncnc(Nc3ccc(OCc4c(-c5ccccc5)no[n+]4[O-])cc3)c12 reaches 80% or more?
0 (no)

Could you tell me if the measured activity at 10 µM of Cc1nn(-c2ccccc2)c2nc(CCl)[nH]c(=O)c12 [13b] reaches 80% or more?
0 (no)

Could you tell me if the measured activity at 10 µM of Nc1ccc(NCc2c(-c3ccccc3)no[n+]2[O-])cc1 reaches 80% or more?
1 (yes)

Could you tell me if the measured activity at 10 µM of [O-][n+]1onc(-c2ccccc2)c1COc1ccc(Nc2ncnc3c2cnn3-c2ccc(Br)cc2)cc1 reaches 80% or more?
1 (yes)

Could you tell me if the measured activity at 10 µM of Cc1nn(-c2ccc(Br)cc2)c2nc(C(F)(F)F)nc(Nc3ccc(NCc4c(-c5ccccc5)no[n+]4[O-])cc3)c12 [12c] reaches 80% or more?
1 (yes)

Could you tell me if the measured activity at 10 µM of Cc1nc(Nc2ccc(OCc3c(-c4ccccc4)no[n+]3[O-])cc2)c2c(C)nn(-c3ccccc3)c2n1 reaches 80% or more?
1 (yes)

Could you tell me if the measured activity at 10 µM of [O-][n+]1onc(-c2ccccc2)c1CNc1ccc(Nc2nc(C(F)(F)F)nc3c2cnn3-c2ccc(Br)cc2)cc1 [12b] reaches 80% or more?
0 (no)

Could you tell me if the measured activity at 10 µM of O=c1[nH]c(CNc2ccc(NCc3c(-c4ccccc4)no[n+]3[O-])cc2)nc2c1cnn2-c1ccccc1 [14a] reaches 80% or more?
0 (no)

Could you tell me if the measured activity at 10 µM of O=c1[nH]c(CCl)nc2c1cnn2-c1ccccc1 [13a] reaches 80% or more?
1 (yes)

Could you tell me if the measured activity at 10 µM of Cc1nn(-c2ccc(Br)cc2)c2ncnc(Nc3ccc(OCc4c(-c5ccccc5)no[n+]4[O-])cc3)c12 reaches 80% or more?
1 (yes)

====

Tested on: RPMI-8226
Experiment: NCI-60 one-dose SRB screening
Format: cell-based
Details: Homo sapiens, RPMI-8226, Leukemia, 10 µM one dose, 48 h, read-out: growth percentage
reportedProperty: activity at 10 µM

> print(dat)
                                   compound  targetsystem  result
1  [O-][n+]1onc(-c2ccccc2)c1COc1ccc(Nc2ncnc3c2cnn3-c2ccccc2)cc1     RPMI-8226    104%
2    O=c1[nH]c(CCl)nc2c1cnn2-c1ccccc1 [13a]     RPMI-8226   82.5%
3  Cc1nc(Nc2ccc(OCc3c(-c4ccccc4)no[n+]3[O-])cc2)c2cnn(-c3ccc(Br)cc3)c2n1     RPMI-8226    115%

--- query ---
What does the record list as activity at 10 µM for Cc1nc(Nc2ccc(OCc3c(-c4ccccc4)no[n+]3[O-])cc2)c2c(C)nn(-c3ccccc3)c2n1 ?
106%
